Form field: pIC50 (one value per entry).
Biological target: recombinant human PERK protein (Homo sapiens, UniProt Q9NZJ5)
Sequence (Q9NZJ5 30-1116): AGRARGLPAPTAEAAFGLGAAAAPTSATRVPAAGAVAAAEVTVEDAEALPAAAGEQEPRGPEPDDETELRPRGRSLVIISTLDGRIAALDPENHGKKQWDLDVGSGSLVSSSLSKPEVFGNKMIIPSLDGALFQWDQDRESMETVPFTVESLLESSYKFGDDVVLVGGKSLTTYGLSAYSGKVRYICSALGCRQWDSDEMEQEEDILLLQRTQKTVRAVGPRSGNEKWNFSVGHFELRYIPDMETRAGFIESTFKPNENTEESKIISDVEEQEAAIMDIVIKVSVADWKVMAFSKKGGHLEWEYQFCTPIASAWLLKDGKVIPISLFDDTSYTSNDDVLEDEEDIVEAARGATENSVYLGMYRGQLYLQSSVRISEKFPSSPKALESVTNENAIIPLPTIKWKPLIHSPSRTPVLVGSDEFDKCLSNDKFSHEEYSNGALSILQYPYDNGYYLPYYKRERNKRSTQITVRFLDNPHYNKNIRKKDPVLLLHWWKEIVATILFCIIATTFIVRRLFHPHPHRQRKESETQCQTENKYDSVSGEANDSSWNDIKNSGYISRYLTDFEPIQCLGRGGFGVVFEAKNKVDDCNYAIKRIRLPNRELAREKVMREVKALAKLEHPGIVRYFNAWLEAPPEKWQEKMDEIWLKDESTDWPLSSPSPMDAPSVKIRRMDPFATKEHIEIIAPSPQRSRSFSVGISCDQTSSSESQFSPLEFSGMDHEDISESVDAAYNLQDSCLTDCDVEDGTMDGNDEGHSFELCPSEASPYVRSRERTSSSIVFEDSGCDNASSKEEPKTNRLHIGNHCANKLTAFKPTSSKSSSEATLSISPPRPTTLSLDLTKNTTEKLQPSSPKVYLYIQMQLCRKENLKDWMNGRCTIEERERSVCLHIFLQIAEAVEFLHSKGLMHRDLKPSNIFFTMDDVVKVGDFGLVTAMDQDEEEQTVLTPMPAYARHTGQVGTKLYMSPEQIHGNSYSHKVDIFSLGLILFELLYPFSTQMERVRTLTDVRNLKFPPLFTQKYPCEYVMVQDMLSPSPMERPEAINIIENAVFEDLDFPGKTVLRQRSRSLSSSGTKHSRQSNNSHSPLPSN
Assay: PKR-like endoplasmic reticulum kinase (PERK) inhibitory capacity, 33P-ATP filter assay
Details: 15 uM [gamma-33P-ATP], 40 minutes, room temperature
pIC50: −log10 of the molar value.

// below: answered compounds
>  <chemicalSmiles>
Cn1c(=O)c(-c2c(F)ccc(NS(=O)(=O)c3cc(F)ccc3F)c2F)cc2cnc(N)nc21

>  <pIC50>
> 7.00

$$$$
>  <chemicalSmiles>
COc1ncc(Cl)cc1S(=O)(=O)Nc1ccc(F)c(-n2cc(C(F)F)c3nc(N)ncc3c2=O)c1F

>  <pIC50>
> 7.00

$$$$
>  <chemicalSmiles>
COc1ncc(Cl)cc1S(=O)(=O)Nc1ccc(F)c(-c2cc3cnc(N)nc3n(C)c2=O)c1F

>  <pIC50>
> 7.00

$$$$
>  <chemicalSmiles>
Cn1c(=O)c(-c2c(F)ccc(NS(=O)(=O)c3cccnc3Cl)c2F)cc2cnc(N)nc21

>  <pIC50>
6.52 to 7.00

$$$$
>  <chemicalSmiles>
Cc1c(S(=O)(=O)Nc2ccc(F)c(-c3cc4cnc(N)nc4n(C)c3=O)c2F)c(CO)nn1C

>  <pIC50>
< 6.00

$$$$
>  <chemicalSmiles>
Cn1c(=O)n(-c2c(F)ccc(NS(=O)(=O)c3cc(Cl)cnc3Cl)c2F)c(=O)c2cnc(N)nc21

>  <pIC50>
> 7.00

$$$$
>  <chemicalSmiles>
Cn1c(=O)c(-c2c(F)ccc(NS(=O)(=O)c3cc(C(F)(F)F)ccc3Cl)c2F)cc2cnc(N)nc21

>  <pIC50>
> 7.00

$$$$
>  <chemicalSmiles>
Cc1n[nH]c(C)c1S(=O)(=O)Nc1ccc(F)c(-c2cc3cnc(N)nc3n(C)c2=O)c1F

>  <pIC50>
< 6.00

$$$$

The compound Cc1nn(C)c(Cl)c1S(=O)(=O)Nc1ccc(F)c(-c2cc3cnc(N)nc3n(C)c2=O)c1F on recombinant human PERK protein (Homo sapiens, UniProt Q9NZJ5): pIC50 was 6.00 to 6.52

Reported recombinant human PERK protein (Homo sapiens, UniProt Q9NZJ5) pIC50 for item Cn1c(=O)c(-c2c(F)ccc(NS(=O)(=O)c3cccc4ccccc34)c2F)cc2cnc(N)nc21 was > 7.00
